The origin of these recorded values is ChEMBL document CHEMBL6074678.

Molecular target: Nucleotide-binding oligomerization domain-containing protein 1 (Homo sapiens)
Sequence (Q9Y239 whole entry, the tested form may be a part): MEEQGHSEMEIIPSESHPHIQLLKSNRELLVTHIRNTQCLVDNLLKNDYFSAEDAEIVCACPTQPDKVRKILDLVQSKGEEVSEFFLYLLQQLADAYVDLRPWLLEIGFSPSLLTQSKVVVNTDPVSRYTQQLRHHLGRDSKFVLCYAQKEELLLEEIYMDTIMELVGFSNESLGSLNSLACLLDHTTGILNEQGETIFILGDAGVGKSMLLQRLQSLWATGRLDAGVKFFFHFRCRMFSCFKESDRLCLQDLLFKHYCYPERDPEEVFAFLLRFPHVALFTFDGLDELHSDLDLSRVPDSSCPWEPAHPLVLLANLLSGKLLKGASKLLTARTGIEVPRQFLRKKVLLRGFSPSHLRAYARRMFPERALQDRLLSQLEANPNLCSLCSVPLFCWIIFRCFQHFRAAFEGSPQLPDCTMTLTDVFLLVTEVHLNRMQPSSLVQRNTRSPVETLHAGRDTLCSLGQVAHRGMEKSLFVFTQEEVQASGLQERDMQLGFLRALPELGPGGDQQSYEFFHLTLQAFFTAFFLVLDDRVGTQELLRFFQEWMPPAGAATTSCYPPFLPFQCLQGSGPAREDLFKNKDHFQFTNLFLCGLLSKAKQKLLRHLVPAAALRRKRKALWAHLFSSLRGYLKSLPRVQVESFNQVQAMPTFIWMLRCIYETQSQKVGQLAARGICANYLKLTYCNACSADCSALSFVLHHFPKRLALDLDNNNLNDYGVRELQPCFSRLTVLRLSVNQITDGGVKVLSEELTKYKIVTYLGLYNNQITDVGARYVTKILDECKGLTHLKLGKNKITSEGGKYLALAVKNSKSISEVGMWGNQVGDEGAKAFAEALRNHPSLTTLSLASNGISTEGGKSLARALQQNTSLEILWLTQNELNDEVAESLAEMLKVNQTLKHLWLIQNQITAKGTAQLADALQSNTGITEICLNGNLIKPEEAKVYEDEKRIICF
Test: Antagonist activity at human NOD1 expressed in HEK-Blue cells assessed as decrease in SEAP secretion incubated for 3 hrs followed by C12-iE-DAP stimulation for 20 hrs by spectrophotometry
Type: cell-based, HEK-Blue hNOD1
readout.type: pIC50
As a rule, pIC50 stands for the negative log10 of the concentration, concentration in M.

If you can, please state the reported pIC50 value of C=CC(=O)Nc1nc2ccc(Cl)cc2c(=O)n1-c1ccc(Cl)c(NS(=O)(=O)c2ccccc2F)c1 .
7.57

If you can, please state the reported pIC50 value of O=c1c2ccncc2nc(Cl)n1-c1ccc(Cl)c(NS(=O)(=O)c2cc(F)c(F)cc2F)c1 .
8.12

If you can, please state the reported pIC50 value of Cn1cc(S(=O)(=O)Nc2cc(-n3c(Cl)nc4cnc(Cl)cc4c3=O)ccc2Cl)cn1 .
8.51

If you can, please state the reported pIC50 value of O=c1c2cc(Cl)ncc2nc(Cl)n1-c1ccc(Cl)c(NS(=O)(=O)c2c(F)cccc2F)c1 .
8.89

If you can, please state the reported pIC50 value of O=c1c2cc(Cl)ccc2nc(NCCCN2CCOCC2)n1-c1ccc(Cl)c(NS(=O)(=O)c2ccccc2F)c1 .
7.49

---

Test: Metabolic stability in human liver microsomes assessed as hepatic clearance at 1.25 uM preincubated for 5 mins followed by NADPH addition measured upto 120 mins by LC-MS/MS analysis
Type: ADME, Microsome
Conditions: time < 125 min
readout.type: CLhep predicted at 1.25 µM (mL/min/kg)
Could you give me the number in mL/min/kg? Just the number is fine.

If you can, please state the reported CLhep predicted at 1.25 µM value of O=c1c2cc(Cl)cnc2nc(Cl)n1-c1ccc(Cl)c(NS(=O)(=O)c2ccccc2F)c1 .
15.2

If you can, please state the reported CLhep predicted at 1.25 µM value of O=c1c2nc(Cl)ccc2nc(Cl)n1-c1ccc(Cl)c(NS(=O)(=O)c2ccccc2F)c1 .
8.9

If you can, please state the reported CLhep predicted at 1.25 µM value of O=c1c2cc(Cl)ncc2nc(Cl)n1-c1ccc(Cl)c(NS(=O)(=O)c2ccccc2F)c1 .
8.3

---

Can you tell me microsomal CLint at 1.25 µM for the items I'm about to list?
Experiment: Metabolic stability in mouse liver microsomes assessed as intrinsic clearance at 1.25 uM preincubated for 5 mins followed by NADPH addition measured upto 120 mins by LC-MS/MS analysis
Format: ADME, Microsome
Conditions: time < 125 min, read-out: CLH
Could you give me the number in µL/min/mg? Just the number is fine.

If you can, please state the reported microsomal CLint at 1.25 µM value of O=c1c2cc(Cl)ncc2nc(Cl)n1-c1ccc(Cl)c(NS(=O)(=O)c2ccccc2F)c1 .
26.2

If you can, please state the reported microsomal CLint at 1.25 µM value of O=c1c2nc(Cl)ccc2nc(Cl)n1-c1ccc(Cl)c(NS(=O)(=O)c2ccccc2F)c1 .
35.4

If you can, please state the reported microsomal CLint at 1.25 µM value of O=c1c2cc(Cl)cnc2nc(Cl)n1-c1ccc(Cl)c(NS(=O)(=O)c2ccccc2F)c1 .
99.9

---

Can you tell me CLhep predicted at 1.25 µM for the items I'm about to list?
Assay: Metabolic stability in mouse liver microsomes assessed as hepatic clearance at 1.25 uM preincubated for 5 mins followed by NADPH addition measured upto 120 mins by LC-MS/MS analysis
Type: ADME, Microsome
Conditions: time < 125 min

If you can, please state the reported CLhep predicted at 1.25 µM value of O=c1c2cc(Cl)cnc2nc(Cl)n1-c1ccc(Cl)c(NS(=O)(=O)c2ccccc2F)c1 .
73.2 mL/min/kg

If you can, please state the reported CLhep predicted at 1.25 µM value of O=c1c2nc(Cl)ccc2nc(Cl)n1-c1ccc(Cl)c(NS(=O)(=O)c2ccccc2F)c1 .
54.7 mL/min/kg

If you can, please state the reported CLhep predicted at 1.25 µM value of O=c1c2ccncc2nc(Cl)n1-c1ccc(Cl)c(NS(=O)(=O)c2ccccc2F)c1 .
< 22.1 mL/min/kg

If you can, please state the reported CLhep predicted at 1.25 µM value of O=c1c2cc(Cl)ncc2nc(Cl)n1-c1ccc(Cl)c(NS(=O)(=O)c2ccccc2F)c1 .
48 mL/min/kg
